targetOfAssay: TAK1 (Homo sapiens)
Sequence (O43318 1-303 limits assumed): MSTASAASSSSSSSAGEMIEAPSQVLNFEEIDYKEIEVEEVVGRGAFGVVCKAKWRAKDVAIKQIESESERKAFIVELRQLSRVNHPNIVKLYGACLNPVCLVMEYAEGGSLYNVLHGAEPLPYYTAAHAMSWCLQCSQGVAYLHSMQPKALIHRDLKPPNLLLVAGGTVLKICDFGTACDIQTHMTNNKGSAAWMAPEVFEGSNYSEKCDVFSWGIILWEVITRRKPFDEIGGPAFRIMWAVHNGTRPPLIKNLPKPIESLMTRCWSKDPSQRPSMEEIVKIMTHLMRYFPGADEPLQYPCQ
Sequence (Q15750 437-504 partner limits assumed): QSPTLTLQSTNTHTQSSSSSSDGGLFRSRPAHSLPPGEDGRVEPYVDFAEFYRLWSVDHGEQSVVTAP
testReadout: IC50
Reply with the number, then its unit.

Requested read-out: IC50. Entry: COC1=CC(=O)C2=C(/C=C/C[C@H](O)[C@H](O)C(=O)/C=C\C[C@H](C)OC2=O)C1(F)F [Compound 11]
77 nM
